Assay Summary: NCI Yeast Anticancer Drug Screen. Data for the rad18 strain (AID 177)
Condition Notes: S. cerevisiae rad18 mutant growth inhibition; at 11.0 µM
Description: Growth inhibition of yeast strains with defined genetic alterations is measured as a screen for potential anti-cancer activity. Selected strains with alterations in DNA damage repair or cell cycle control were exposed to compounds and growth inhibition was measured relative to vehicle treated controls. The strain used in this assay is rad18
About 79,000 compounds went through this panel and 15% of them were active in at least one assay; those are over-represented in the sample as a whole. Active and inactive are the calls of the source. No stated cut-off is given here; in the data, active means growth inhibition above about 70%; inactive means the rest.
Returns: one label drawn from T = active, F = inactive

Consider the following illustrative entries.
| Compound | Assigned Label |
| --- | --- |
| CC[C@@]1(O)C(=O)OCc2c1cc1n(c2=O)Cc2cc3c(NC(=O)CN)cccc3nc2-1 | F |
| C[CH2][Sn]([CH2]C)([O]S(C)(=O)=O)[O]S(C)(=O)=O | F |
| CCN(CCCl)CCCCNc1c2ccccc2nc2ccc(OC)cc12 | T |

Prompt line: For CC1CCCN(CCc2ccccc2)CC1 (stereo unspecified) , what call appears in the results of this test?
Response line: F

Prompt line: Now consider C/C(=N\O)c1ccc2ccc3ccccc3c2c1 and answer again.
Response line: F

Prompt line: Can you handle NNc1ccccc1Cl next?
Response line: T

Prompt line: Same thing, different compound: S=C1NC2(CCCCC2)NC12CCCCC2
Response line: F

Prompt line: Can you check C[N+](CCCl)(CCCl)Cc1cccc2cccc([N+](=O)[O-])c12 next?
Response line: T

Prompt line: // same read-out, input: Cc1cc[n+](C2=C(Nc3cccc(C(F)(F)F)c3)C(=O)c3ccccc3C2=O)cc1
Response line: F

Prompt line: Next record, please: CCOP(=S)(S)OCC.[Pd]
Response line: T

Prompt line: Record: CN(CCc1ccc(Br)cc1)CCN1CCCCC1
Response line: F

Prompt line: And the next one, CC[C@@]1(O)C(=O)OCc2c1cc1n(c2=O)Cc2cc3ccccc3nc2-1 ?
Response line: T

Prompt line: // next record CS(=O)(=O)OCCN(CCOS(C)(=O)=O)c1ccc(C=O)cc1
Response line: T

Prompt line: Again, but for COC1CC(CC2CCC(C)C(C(C)C(=O)O)O2)OC2(OC(C)(C3CCC(C)(C4OC(C5OC(O)(CO)C(C)CC5C)CC4C)O3)CC2C)C1C (stereo unspecified)
Response line: F

Prompt line: Quick one: Oc1c(Br)cc(Br)cc1Br
Response line: F

Prompt line: Next up: CNC(=O)ON(C(C)=O)C(=O)NC
Response line: F

Prompt line: Do the same for BrCC[N+]12CC[N+](CCBr)(CC1)C2 please
Response line: F

Prompt line: Would you mind doing CC1=C(O)C(=O)C=C2C1=CC=C1[C@@]2(C)CCC2(C)[C@@H]3C[C@@H](C)C(=O)C[C@]3(C)CC[C@]12C (stereo partly specified) as well?
Response line: T

Prompt line: Also, CNCC(O)c1ccc(O)c(O)c1.[Pt].c1ccc([PH+](c2ccccc2)c2ccccc2)cc1.c1ccc([PH+](c2ccccc2)c2ccccc2)cc1 please.
Response line: F

Prompt line: Do the same for O=C(O)CCCc1cc(I)c(N(CCCl)CCCl)c(I)c1 please
Response line: F

====

Assay Summary: NCI Yeast Anticancer Drug Screen. Data for the cln2 rad14 strain (AID 165);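 further: 0% = growth equal to vehicle treated cultures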
Condition Notes: S. cerevisiae cln2 rad14 strain, at 50.0 µM (retest, dose inferred, filed as 5.0), hits give high values
This is part of a sample that, as a whole, favours compounds with a hit. Of some 79,000 tested, about 15% had one in any assay.
Listed here: items and their measured growth inhibition.
Note: unit % is implicit; provide only the numeric part.

Worked examples follow.
| Molecule | growth inhibition [%] |
| --- | --- |
| CC(Cl)CNC(C)C (stereo unspecified) | -67 |
| C[N-]c1nnnn1C.[Au+].c1ccc([PH+](c2ccccc2)c2ccccc2)cc1 | 95 |
| CC(=O)O[C@H]1CC[C@H]2[C@@H]3CC[C@H]4CC(=O)CC[C@@H]4[C@H]3CC[C@]12C | -6 |
| CC(C)(c1ccccc1)c1ccc(O)cc1 | 71 |
| ClC1=C(Cl)C(Cl)(Cl)SS1 | 99 |

Prompt line: I would be grateful if you could share the reported growth inhibition for COc1ccc(/C=C(/C)[N+](=O)[O-])cc1 .
Response line: 94

====

Assay Summary: NCI Yeast Anticancer Drug Screen. Data for the sgs1 mgt1 strain (AID 161);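 further: 0% = growth of cultures given vehicle only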
Condition Notes: S. cerevisiae sgs1 mgt1 strain, at 50.0 µM, hits give high values
The panel holds about 79,000 compounds, 15% with a hit somewhere; the sample as a whole holds those more often.
The following molecules are shown together with reported growth inhibition values.
// return numeric value only (unit: %, not printed)

Sample records with growth inhibition:
| Smiles Representation | growth inhibition (%) |
| --- | --- |
| CSCCl | 90 |
| CCC[CH2][Sn]([CH2]CCC)([S]C1=NCCS1)[S]C1=NCCS1 | 90.9 |
| CN(N=O)C(=O)NNC(=O)N(C)N=O | 91.6 |

Switching to the query record.
Prompt line: growth inhibition for CC[PH+](CC)CC.CC[PH+](CC)CC.[Au] ?
Response line: 89.4

====

Listed here: items and their measured growth inhibition.
Assay Summary: NCI Yeast Anticancer Drug Screen. Data for the bub3 strain (AID 167)
Condition Notes: S. cerevisiae bub3 mutant strain, at 1.2 µM, hits give high values
Compounds without any hit were thinned out: in the full panel of roughly 79,000, 15% have a hit.
Just the number please, in %, no unit attached.

Past entries and their recorded results:
| Molecule | growth inhibition (%) |
| --- | --- |
| NCCc1ccc(OCc2ccccc2)c(OCc2ccccc2)c1 | 12 |
| C[N+](C)(C)CC1CCCC(C[N+](C)(C)C)C1=O (configuration not stated) | -1 |
| COC(=O)C1C2c3ccccc3C(c3ccccc32)C1C(=O)OC (configuration not stated) | -1 |
| C[C@@]12CCC(=O)C=C1CC[C@H]1C2=CC[C@]2(C)C1CC[C@@]2(C)O (some centres not stated) | -1 |

Prompt line: Entry under review: CC[C@@]1(O)C(=O)OCc2c1cc1n(c2=O)Cc2cc3ccccc3nc2-1 . Reported growth inhibition?
Response line: -12

Prompt line: Now try CCC1(OC(=O)CN)C(=O)OCc2c1cc1n(c2=O)Cc2cc3ccccc3nc2-1 (configuration not stated) .
Response line: 9

Prompt line: Also check COC1C(O)C(C)OC(OC2C(Oc3cccc4c(O)c5c(=O)oc6ccc(C)c7c(=O)oc(c34)c5c67)OC(C)C(O)C2O)C1O (configuration not stated)
Response line: -5

====

Assay Summary: NCI Yeast Anticancer Drug Screen. Data for the bub3 strain (AID 167)
Condition Notes: S. cerevisiae bub3 mutant strain, at 5.0 µM (retest, dose inferred, filed as 0.5), hits give high values
This is part of a sample that, as a whole, favours compounds with a hit. Of some 79,000 tested, about 15% had one in any assay.
Quantity Name: growth inhibition (%)
Dear colleague, please return just the value in %, with no unit written.

A selection of reference data follows.
| Compound | growth inhibition, % |
| --- | --- |
| O=C(NNC(=O)OCC(Cl)(Cl)Cl)OCC(Cl)(Cl)Cl | -5 |
| O=S(=O)(O)c1ccc(Cl)cc1.[Cd] | -6 |

Prompt line: Reported growth inhibition for O=P1(NCCCl)OC(c2ccccc2)=CCN1CCCl (stereo not given) : what is it?
Response line: -2

Prompt line: What about CC(C)NCC(O)c1ccccc1Cl (stereo not given) ?
Response line: -2

Prompt line: Entry to check: CC(C)CCCC(C)CCC1C(=O)NC(=O)NC1=O (stereo not given)
Response line: -3

Prompt line: Follow-up item: O=C1C(Br)=CC2(C=C1Br)CCNc1c(O)c3c4c(c12)=NCCC=4C=N3
Response line: -14

Prompt line: Try [Cl][Sn]([Cl])([c]1ccccc1)[c]1ccccc1.c1ccncc1.c1ccncc1 next.
Response line: 92

====

Assay Summary: NCI Yeast Anticancer Drug Screen. Data for the rad50EPP+ strain (AID 151);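 further: 0% = growth of vehicle-treated control cultures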
Condition Notes: S. cerevisiae rad50 mutant strain, at 3.7 µM, hits give high values
Compounds without any hit were thinned out: in the full panel of roughly 79,000, 15% have a hit.
Outcome label depends on growth inhibition relative to -30%: at/above gives 1.0, below gives 0.0.

// known answers, use as guide
| Compound | Assigned Label |
| --- | --- |
| N#CC(C#N)=Cc1ccc(C#N)cc1 | 1.0 |
| CC1=C[C@H]2O[C@@H]3C[C@H]4OC(=O)/C=C\C=C\C(C(C)O)OCC(O)C(C)CC(=O)OC[C@@]2(C[C@@H]1O)[C@]4(C)[C@@]31CO1 (stereo partly specified) | 0.0 |
| CC12CCC(C1)C(C)(C)C2OC(=O)c1ccccc1N (stereo unspecified) | 1.0 |
| CCCCN(CCCC)CC(C(C)=O)C(c1ccccc1)c1c(O)c2ccccc2oc1=O (stereo unspecified) | 1.0 |

Consider now this further compound.
Prompt line: Textbook exercise: given the entry CC1CCC2(NC1)OC1CC3C4CCC5CC(OC6OC(CO)C(OC7OC(CO)C(O)C(OC8OCC(O)C(O)C8O)C7OC7OC(CO)C(O)C(O)C7O)C(O)C6O)CCC5(C)C4CCC3(C)C1C2C (stereo unspecified) , state whether its growth inhibition is greater than or equal to -30%.
Response line: 1.0
